Target: Alpha-1D adrenergic receptor (Homo sapiens, UniProt P25100)
Sequence (P25100 whole entry): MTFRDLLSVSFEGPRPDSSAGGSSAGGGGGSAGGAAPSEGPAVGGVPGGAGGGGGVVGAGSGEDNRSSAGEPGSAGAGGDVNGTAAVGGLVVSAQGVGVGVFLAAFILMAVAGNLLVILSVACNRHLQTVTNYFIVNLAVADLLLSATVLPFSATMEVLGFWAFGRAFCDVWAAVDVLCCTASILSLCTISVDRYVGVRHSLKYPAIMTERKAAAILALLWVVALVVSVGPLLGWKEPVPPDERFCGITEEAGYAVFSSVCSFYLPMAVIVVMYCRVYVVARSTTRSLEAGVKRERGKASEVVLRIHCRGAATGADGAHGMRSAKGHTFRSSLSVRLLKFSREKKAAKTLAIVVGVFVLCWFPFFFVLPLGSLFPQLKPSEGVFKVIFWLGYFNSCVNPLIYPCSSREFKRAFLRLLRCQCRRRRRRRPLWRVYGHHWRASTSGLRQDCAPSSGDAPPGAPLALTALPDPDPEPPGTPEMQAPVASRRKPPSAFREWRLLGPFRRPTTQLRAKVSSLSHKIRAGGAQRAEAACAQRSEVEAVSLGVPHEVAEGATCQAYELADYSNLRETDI
Assay: Compound was tested for binding affinity utilizing cloned receptor binding assays by using [125 I]HEAT as radioligand to the human Alpha-1D adrenergic receptor
Give measured pKi for each item. Keep answers brief.
Give bare numbers, as −log10 of the molar value.

{"chemical-string": "COc1cc2nc(N3CCN(C(=O)c4ccco4)[C@H](C(=O)NC(C)(C)C)C3)nc(N)c2cc1OC", "tested-system": "Alpha-1D adrenergic receptor (Homo sapiens, UniProt P25100)", "property": "pKi", "reading": 7.14}

--- query ---
// COc1cc2nc(N3CCN[C@H](C(=O)NC(C)(C)C)C3)nc(N)c2cc1OC : pKi value = 6.60

---

Biological target: UniProtKB P23944
Sequence (P23944 whole entry): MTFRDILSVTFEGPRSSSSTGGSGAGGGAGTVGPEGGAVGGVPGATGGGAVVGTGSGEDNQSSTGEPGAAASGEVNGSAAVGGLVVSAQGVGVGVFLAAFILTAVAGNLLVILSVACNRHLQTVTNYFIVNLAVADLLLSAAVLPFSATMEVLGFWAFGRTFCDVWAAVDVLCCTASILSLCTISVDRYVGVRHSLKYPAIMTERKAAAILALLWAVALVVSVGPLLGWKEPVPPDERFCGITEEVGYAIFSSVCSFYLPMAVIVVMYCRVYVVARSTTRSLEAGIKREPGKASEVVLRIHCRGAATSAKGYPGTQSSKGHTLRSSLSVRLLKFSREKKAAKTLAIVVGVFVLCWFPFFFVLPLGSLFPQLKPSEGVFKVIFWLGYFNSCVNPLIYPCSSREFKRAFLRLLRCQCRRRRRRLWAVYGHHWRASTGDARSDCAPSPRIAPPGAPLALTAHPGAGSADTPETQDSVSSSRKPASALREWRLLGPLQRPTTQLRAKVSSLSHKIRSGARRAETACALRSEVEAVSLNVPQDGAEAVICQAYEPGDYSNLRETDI
Test: Compound was evaluated for its ability to displace [125I]HEAT binding from rat Alpha-1D adrenergic receptor
property: Ki (µM)
Give bare numbers, in µM.

{"molecule": "COc1cc2nc(N3CCN[C@H](C(=O)NC(C)(C)C)C3)nc(N)c2cc1OC", "Ki [µM]": 0.63}
{"molecule": "COc1cc2nc(N3CCN(C(=O)C4CCCO4)CC3)nc(N)c2cc1OC (stereo not drawn)", "Ki [µM]": 0.0034}

--- query ---
Test item COc1cc2nc(N3CCN(C(=O)OCc4ccccc4)[C@H](C(=O)NC(C)(C)C)C3)nc(N)c2cc1OC ; UniProtKB P23944; reported Ki was 0.05

---

Molecular target: UniProt:P15823
Sequence (P15823 whole entry): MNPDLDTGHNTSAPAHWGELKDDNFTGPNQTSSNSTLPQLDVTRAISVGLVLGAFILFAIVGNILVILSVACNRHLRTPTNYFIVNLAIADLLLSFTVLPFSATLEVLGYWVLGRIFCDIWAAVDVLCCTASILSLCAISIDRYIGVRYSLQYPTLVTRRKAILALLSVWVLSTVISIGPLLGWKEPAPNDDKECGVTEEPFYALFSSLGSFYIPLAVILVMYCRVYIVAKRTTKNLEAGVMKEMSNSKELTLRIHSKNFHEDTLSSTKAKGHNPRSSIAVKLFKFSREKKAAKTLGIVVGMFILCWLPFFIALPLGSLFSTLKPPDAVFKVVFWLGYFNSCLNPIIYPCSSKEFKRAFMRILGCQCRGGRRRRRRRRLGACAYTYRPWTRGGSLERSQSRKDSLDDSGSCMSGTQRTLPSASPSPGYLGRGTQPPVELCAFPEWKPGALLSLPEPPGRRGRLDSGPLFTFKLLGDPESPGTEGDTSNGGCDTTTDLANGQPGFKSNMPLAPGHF
Test: Compound was tested for the tissue binding affinity using [3H]- Prazosin as radioligand to the rat spleen Alpha-1B adrenergic receptor subtype
Assay type: tissue-based
property: pIC50
Numbers only, as −log10 of the molar value.

Test item COc1cc2nc(N3CCN(C(=O)c4ccco4)[C@H](C(=O)NC(C)(C)C)C3)nc(N)c2cc1OC ; UniProt:P15823; reported pIC50 was 7.85

---

Molecular target: Alpha-1A adrenergic receptor (Homo sapiens, UniProt P35348)
Sequence (P35348 whole entry): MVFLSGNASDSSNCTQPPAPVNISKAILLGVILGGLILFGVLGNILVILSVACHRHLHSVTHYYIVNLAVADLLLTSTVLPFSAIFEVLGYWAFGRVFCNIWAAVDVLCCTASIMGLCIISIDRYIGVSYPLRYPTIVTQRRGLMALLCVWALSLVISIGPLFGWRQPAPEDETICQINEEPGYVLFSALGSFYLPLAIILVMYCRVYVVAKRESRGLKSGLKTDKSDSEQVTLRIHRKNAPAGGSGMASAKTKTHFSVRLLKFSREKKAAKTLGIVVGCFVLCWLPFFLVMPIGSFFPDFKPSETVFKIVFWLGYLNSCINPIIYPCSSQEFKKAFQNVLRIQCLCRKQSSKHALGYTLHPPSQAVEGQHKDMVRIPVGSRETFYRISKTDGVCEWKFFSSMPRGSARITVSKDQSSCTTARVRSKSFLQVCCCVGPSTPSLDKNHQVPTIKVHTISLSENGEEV
Assay: Compound was tested for its binding affinity utilizing cloned receptor binding assays by using [125 I]HEAT as radioligand to the human Alpha-1A adrenergic receptor
property: pKi
Give bare numbers, as −log10 of the molar value.

Test item COc1cc2nc(N3CCN(C(=O)OCc4ccccc4)[C@H](C(=O)NC(C)(C)C)C3)nc(N)c2cc1OC ; Alpha-1A adrenergic receptor (Homo sapiens, UniProt P35348); reported pKi was 6.38

---

Target: Alpha-1D adrenergic receptor (Homo sapiens)
Test: Compound was tested for its binding affinity utilizing cloned receptor binding assays by using [125 I]HEAT as radioligand to the human Alpha-1D adrenergic receptor
property: Ki (nM)
One number for each entry, in nM.

{"compound": "COc1cc2nc(N3CCN(C(=O)C4CCCO4)CC3)nc(N)c2cc1OC (configuration not stated)", "unit-of-measurement": "nM", "Ki": 2}

--- query ---
// COc1cc2nc(N3CCN(C(=O)OCc4ccccc4)[C@H](C(=O)NC(C)(C)C)C3)nc(N)c2cc1OC : Ki value = 34

---

Give measured IC50 for each item. Keep answers brief.
Biological target: Alpha-1B adrenergic receptor (Rattus norvegicus, UniProt P15823)
Test: Compound was tested for the tissue binding affinity using [3H]- Prazosin as radioligand to the rat spleen Alpha-1B adrenergic receptor subtype.
Format: tissue-based
Your answer should be a number followed by the unit of measure.

{"chemical-string": "COc1cc2nc(N3CCN[C@H](C(=O)NC(C)(C)C)C3)nc(N)c2cc1OC", "tested-system": "Alpha-1B adrenergic receptor (Rattus norvegicus, UniProt P15823)", "property": "IC50", "reading": "1500 nM"}

--- query ---
// COc1cc2nc(N3CCN(C(=O)OCc4ccccc4)[C@H](C(=O)NC(C)(C)C)C3)nc(N)c2cc1OC : IC50 value = 9.3 nM

---

Target: Alpha-1A adrenergic receptor (Homo sapiens, UniProt P35348)
Sequence (P35348 whole entry): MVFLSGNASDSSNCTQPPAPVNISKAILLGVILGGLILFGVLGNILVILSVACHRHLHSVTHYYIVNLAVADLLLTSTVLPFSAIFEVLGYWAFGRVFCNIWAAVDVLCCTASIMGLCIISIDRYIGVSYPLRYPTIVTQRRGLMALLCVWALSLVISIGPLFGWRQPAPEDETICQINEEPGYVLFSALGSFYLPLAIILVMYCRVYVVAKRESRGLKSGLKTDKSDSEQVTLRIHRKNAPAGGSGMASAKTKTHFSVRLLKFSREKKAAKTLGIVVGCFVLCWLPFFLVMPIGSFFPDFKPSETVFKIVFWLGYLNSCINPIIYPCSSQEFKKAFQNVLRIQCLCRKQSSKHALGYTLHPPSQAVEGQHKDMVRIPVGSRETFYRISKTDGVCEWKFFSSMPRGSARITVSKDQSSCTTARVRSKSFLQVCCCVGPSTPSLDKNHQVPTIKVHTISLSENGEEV
Experiment: Compound was tested for the tissue binding affinity using [3H]- Prazosin as radioligand to the human prostate Alpha-1A adrenergic receptor subtype.
property: IC50 (nM)
Answers are plain numbers, in nM.

// COc1cc2nc(N3CCN[C@H](C(=O)NC(C)(C)C)C3)nc(N)c2cc1OC : IC50 value = 1700

---

Reported pKi values, Alpha-1A adrenergic receptor (Rattus norvegicus, UniProt P43140).
Give bare numbers, as −log10 of the molar value.

{"chemical-string": "COc1cc2nc(N3CCN(C(=O)c4ccco4)[C@H](C(=O)NC(C)(C)C)C3)nc(N)c2cc1OC", "reading": 6.24}

--- query ---
// COc1cc2nc(N3CCN[C@H](C(=O)NC(C)(C)C)C3)nc(N)c2cc1OC : pKi value = 6.29

---

Target: Alpha-1B adrenergic receptor (Rattus norvegicus, UniProt P15823)
Sequence (P15823 whole entry): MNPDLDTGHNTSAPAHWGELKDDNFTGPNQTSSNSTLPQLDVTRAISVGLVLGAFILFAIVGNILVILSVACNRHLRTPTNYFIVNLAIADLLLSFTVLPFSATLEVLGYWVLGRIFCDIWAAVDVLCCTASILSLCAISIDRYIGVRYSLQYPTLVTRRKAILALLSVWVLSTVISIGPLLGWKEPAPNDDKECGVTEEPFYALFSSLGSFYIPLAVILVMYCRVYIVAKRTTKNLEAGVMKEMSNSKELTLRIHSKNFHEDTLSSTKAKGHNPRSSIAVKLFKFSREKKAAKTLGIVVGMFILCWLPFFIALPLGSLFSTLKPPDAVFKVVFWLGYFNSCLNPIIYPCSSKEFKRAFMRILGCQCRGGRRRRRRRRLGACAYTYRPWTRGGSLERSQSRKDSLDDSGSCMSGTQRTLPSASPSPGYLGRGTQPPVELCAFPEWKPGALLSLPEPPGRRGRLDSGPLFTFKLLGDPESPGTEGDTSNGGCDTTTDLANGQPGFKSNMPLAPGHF
Test: Compound was tested for the tissue binding affinity using [3H]- Prazosin as radioligand to the rat liver Alpha-1B adrenergic receptor
property: pIC50
Give bare numbers, as −log10 of the molar value.

These recorded examples may help you get a feel for the data.
{"chemical-string": "COc1cc2nc(N3CCN[C@H](C(=O)NC(C)(C)C)C3)nc(N)c2cc1OC", "reading": 5.57}
{"chemical-string": "COc1cc2nc(N3CCN(C(=O)c4ccco4)[C@H](C(=O)NC(C)(C)C)C3)nc(N)c2cc1OC", "reading": 7.82}

--- query ---
// COc1cc2nc(N3CCN(C(=O)OCc4ccccc4)[C@H](C(=O)NC(C)(C)C)C3)nc(N)c2cc1OC : pIC50 value = 8.03

Hey, just so you know, these numbers are from ChEMBL document CHEMBL1131601.
